Reference for the values: paper PMC11480844

B1: H2-Kb / G6 (parent)
chain 1: AQSVTQPDARVTVSEGASLQLRCKYSYFGTPYLFWYVQYPRQGLQLLLKYYPGDPVVQGVNGFEAEFSKSNSSFHLRKASVHWSDWAVYFCAVTPGGSNAKLTFGKGTKLSVKS
chain 2: NSGVVQSPRYIIKGKGERSILKCIPISGHLSVAWYQQTQGQELKFFIQHYDKMERDKGNLPSRFSVQQFDDYHSEMNMSALELEDSAVYFCASSRQGGDNNQAPLFGEGTRLSVL
chain 3: not shown
chain 4: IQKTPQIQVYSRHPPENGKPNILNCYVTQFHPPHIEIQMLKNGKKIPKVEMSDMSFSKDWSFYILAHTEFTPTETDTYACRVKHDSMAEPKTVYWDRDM
chain 5: SIINFEKL

- Variants of: B1
- ASSAY COMMENT: % of reporter cells activated (NFAT-GFP), raw; further: test concentration or dose not given here
- COND: with G6; scale: % of reporter cells activated
READOUT LABEL: ratio to parent

MUTANT NAME	REPORTED
chain 5 E6C	0.21
chain 5 I2F	0.226
chain 5 K7C	0.272
chain 5 E6R	0.259
chain 5 I3P	0.206
chain 5 K7Q	0.267
chain 5 F5W	0.263
